Reference source: patent US20080287445A1

assay_target: GPR73 (prokineticin 1 receptor) (Homo sapiens, UniProt Q8TCW9)
Construct: expressed in transfected cells; host or cells: HEK 293
Sequence (Q8TCW9 whole entry, species assumed): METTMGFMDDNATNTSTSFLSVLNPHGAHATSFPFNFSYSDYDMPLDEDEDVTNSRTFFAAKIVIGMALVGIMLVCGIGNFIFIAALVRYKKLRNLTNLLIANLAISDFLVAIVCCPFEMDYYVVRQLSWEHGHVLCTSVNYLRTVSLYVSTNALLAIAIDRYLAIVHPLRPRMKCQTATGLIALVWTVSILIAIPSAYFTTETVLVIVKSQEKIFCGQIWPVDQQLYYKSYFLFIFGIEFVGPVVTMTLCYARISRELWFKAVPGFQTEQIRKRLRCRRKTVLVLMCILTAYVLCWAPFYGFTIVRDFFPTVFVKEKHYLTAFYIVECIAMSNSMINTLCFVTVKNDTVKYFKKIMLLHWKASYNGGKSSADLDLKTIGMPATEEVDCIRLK
test_protocol: PK1 functional assay: Ca2+ mobilization screening for PK1 antagonists on the FLIPR
Format: cell-based
assay_context: HEK293, 10 μM compound; HEK 293 GPR73 cells; multiple values = multiple testing; read-out: Ca^2+ Mobilization % Inh @ 10 μM
Procedure: At a time of 24 h prior to running the assay, in cell culture media (DMEM containing high Glucose and L-glutamine, 10% FBS, 1% Pen/Streptomycin, 1% Sodium Pyruvate, 20 mM HEPES, Zeocin 200 mg/L), 100 μL of 1.3*10^6/ml HEK 293 GPR73 (prokineticin 1 receptor) expressing cells were plated in a 96 well poly-d-lysine coated plate (Costar), and incubated at 37 C and 5% CO2. […] Baseline is described as the amount of relative fluorescence read when buffer alone is added to cells. […]
Rule: inhibition at 10 µM of 90% or more gives yes (1); anything lower gives no (0).

compound=Cc1cc(C)c(CNc2nc(=O)n(Cc3ccc(-c4csnn4)cc3)c(=O)n2Cc2ccc(OC(F)F)cc2)cn1 answer_label="no (0)"
compound=COc1ccc(Cn2c(NCc3c(N)nc4c(c3C)CCC4)nc(=O)n(Cc3ccc(OC)cc3)c2=O)cc1 answer_label="yes (1)"
compound=COc1ccc(Cn2c(NCc3cccnc3NCCN(C)C)nc(=O)n(Cc3ccc(F)cc3)c2=O)cc1 answer_label="yes (1)"
compound=COCCNc1ncccc1CNc1nc(=O)n(CCc2ccc([N+](=O)[O-])cc2)c(=O)n1Cc1ccc(OC)cc1 answer_label="no (0)"
compound=COc1ccc(Cn2c(=O)nc(NCc3cccnc3N)n(Cc3ccc(C(N)=O)cc3)c2=O)cc1 answer_label="yes (1)"
compound=COc1ccc(Cn2c(=O)nc(NCc3cccnc3N)n(Cc3ccccc3OC)c2=O)cc1 answer_label="no (0)"
compound=COc1ccc(Cn2c(NCCc3cccnc3N)nc(=O)n(Cc3ccc(F)cc3)c2=O)cc1 answer_label="no (0)"
compound=COc1ccc(Cn2c(CCc3cccnc3C(N)=O)cc(=O)n(Cc3ccc(OC)cc3)c2=O)cc1 answer_label="no (0)"
compound=Cc1cc(C)c(CNc2nc(=O)n(Cc3ccc4occc4c3)c(=O)n2Cc2ccc3c(c2)CCO3)c(N)n1 answer_label="yes (1)"
compound=COc1ccc(Cn2c(NCc3cnccc3C)nc(=O)n(Cc3ccc(OC)cc3)c2=O)cc1 answer_label="yes (1)"
compound="COc1ccc(Cn2c(NCc3cccnc3NCC3CCCO3)nc(=O)n(Cc3ccc(OC)cc3)c2=O)cc1 (stereo not shown)" answer_label="yes (1)"
compound=COc1ccc(Cn2c(=O)nc(NCc3cccnc3N)n(Cc3ccc4c(c3)CCO4)c2=O)cc1 answer_label="yes (1)"

---

# inhibition at 10 µM values compiled below
assay_target: GPR73 (prokineticin 1 receptor) (Homo sapiens)
Construct: expressed in transfected cells; host or cells: HEK 293
test_protocol: PK1 functional assay: Ca2+ mobilization screening for PK1 antagonists on the FLIPR
Format: cell-based
assay_context: HEK293, 10 μM compound; HEK 293 GPR73 cells; multiple values = multiple testing; read-out: Ca^2+ Mobilization % Inh @ 10 μM
parameter: inhibition at 10 µM (%)

smiles_text=COc1ccc(Cn2c(=O)nc(NCc3cccnc3N)n(Cc3ccc4sccc4c3)c2=O)cc1 unit_info=% recorded_number=91
smiles_text=COc1ccc(Cn2c(NCc3cnc(C)cc3C)nc(=O)n(Cc3ccc4[nH]ccc4c3)c2=O)cc1 unit_info=% recorded_number=41
smiles_text=COc1ccc(Cn2c(NCc3cncnc3N)nc(=O)n(Cc3ccc(OC)cc3)c2=O)cc1 unit_info=% recorded_number=90
smiles_text=COc1ccc(Cn2c(NCc3cccnc3N)nc(=O)n(Cc3ccc(F)cc3)c2=O)cc1 unit_info=% recorded_number=89
